For each record, write down the corresponding protein stability index.
B1: ZNF263 (parent)
chain: LLRHQRIHTGERPYKCPECGKSFS

variants of: B1; test: protein stability index of a GFP-peptide fusion (GPS, HEK-293T) (PSI 1-6); higher = more stable; details: c terminus: a fixed tail appended;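 note: lentivirally expressed fusions sorted by FACS into six bins by GFP to DsRed ratio, PSI derived from sequencing read proportions per bin multiplied by bin number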
One number for each entry.

// solved cases for protein stability index follow
Problem: Look at this variant and give its reported protein stability index. L1C
Result: 4.12

Problem: Look at this variant and give its reported protein stability index. T9A
Result: 1.85

Problem: protein stability index for E11I ?
Result: 1.78

Hi, could you look up protein stability index for each item in my list?
1. H4D
2. L2I
3. R3G
4. H4W

Result:
1: 2.58; 2: 1.78; 3: 2.68; 4: 1.77
